Reported pIC50 values are given for each entry in this list.
Assay target: human TLR8 (Homo sapiens, UniProt Q9NR97)
Sequence (Q9NR97 27-1041): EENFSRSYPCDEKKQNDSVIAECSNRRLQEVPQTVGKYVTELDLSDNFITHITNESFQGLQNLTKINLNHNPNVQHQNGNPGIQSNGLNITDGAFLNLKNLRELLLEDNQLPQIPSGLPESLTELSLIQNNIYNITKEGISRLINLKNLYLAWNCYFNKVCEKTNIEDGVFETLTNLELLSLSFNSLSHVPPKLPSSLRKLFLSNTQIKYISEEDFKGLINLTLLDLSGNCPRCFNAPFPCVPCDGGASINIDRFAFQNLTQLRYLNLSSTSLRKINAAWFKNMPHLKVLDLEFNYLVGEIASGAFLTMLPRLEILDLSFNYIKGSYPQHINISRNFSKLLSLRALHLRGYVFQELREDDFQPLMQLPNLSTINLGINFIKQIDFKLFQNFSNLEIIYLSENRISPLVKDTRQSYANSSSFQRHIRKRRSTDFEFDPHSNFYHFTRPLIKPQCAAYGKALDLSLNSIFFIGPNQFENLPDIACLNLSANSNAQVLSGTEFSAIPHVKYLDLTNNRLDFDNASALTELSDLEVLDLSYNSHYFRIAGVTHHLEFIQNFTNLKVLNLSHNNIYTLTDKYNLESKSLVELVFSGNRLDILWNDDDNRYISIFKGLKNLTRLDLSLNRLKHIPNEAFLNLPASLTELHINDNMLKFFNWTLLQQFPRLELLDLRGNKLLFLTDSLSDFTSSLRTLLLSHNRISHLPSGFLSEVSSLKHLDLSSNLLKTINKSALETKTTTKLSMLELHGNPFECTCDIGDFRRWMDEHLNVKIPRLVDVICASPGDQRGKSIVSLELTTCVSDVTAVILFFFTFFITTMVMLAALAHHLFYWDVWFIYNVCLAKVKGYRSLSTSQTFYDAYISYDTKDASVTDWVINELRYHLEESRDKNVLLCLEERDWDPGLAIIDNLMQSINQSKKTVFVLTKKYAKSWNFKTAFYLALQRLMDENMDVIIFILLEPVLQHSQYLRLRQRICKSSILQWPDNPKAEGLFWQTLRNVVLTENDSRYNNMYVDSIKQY
Procedure details: TLR8 inhibition reporter assay (HEK-Blue cells, SEAP reporter, R848 stimulation)
Test conditions: HEK-Blue cells overexpressing human TLR8, SEAP reporter, R848 15.9 μM
pIC50: −log10 of the molar value.

- Cc1cc(-c2[nH]c3ccc(C4CCN(CC(C)(C)O)CC4)cc3c2C(C)C)cc2cnn(C)c12: 6.00 to 7.00
- Cc1cc(-c2[nH]c3ccc(C4CCN(C5CCS(=O)(=O)CC5)CC4)cc3c2C(C)C)cn2ccnc12: > 7.00
- CNc1c[nH]c2nccc(-c3[nH]c4ccc(C5CCNCC5)cc4c3C)c12: 4.30 to 6.00
- CNC(=O)CN1CCC(c2ccc3[nH]c(-c4ccc5ncnn5n4)c(C(C)C)c3c2)CC1: > 7.00
- CC(C)c1c(-c2cc(F)c3nccn3c2)[nH]c2ccc(C3CCN(C(=O)CN(C)C)CC3)cc12: > 7.00
- CNC(=O)CN1CCC(c2ccc3[nH]c(-c4ccc5cnnn5c4)c(C(C)C)c3c2)CC1: 6.00 to 7.00

Here is another compound to look at.
(Q) Consider the compound shown here: CNC(=O)CN1CCC(c2ccc3[nH]c(-c4ccnc5[nH]ncc45)c(C(C)C)c3c2)CC1 What is its recorded pIC50?
(A) > 7.00
